Reference source: ChEMBL document CHEMBL4513216

Each entry below lists one item and its recorded INHIBITION value.
# Test system: Plasmodium berghei
# experimentNotes: Screen against P. berghei liver stage (PbLuc), transformed with Luciferase, at 2uM
# Assay type: functional, HepG2
# runParameters: tested at 2 uM
The whole screen tested about 68,000 compounds, of which about 2,700 (4%) showed an effect of 50% or more. This excerpt belongs to a sample that is enriched for strong results.

{"compound": "CCCN(Cc1cccc(OCCO)c1)Cc1ccccc1OC", "targetEntity": "Plasmodium berghei", "INHIBITION [%]": -135.42}
{"compound": "CC(C)CCS(=O)(=O)N1CCCC(c2nncn2C(C)C)C1 (stereo not drawn)", "targetEntity": "Plasmodium berghei", "INHIBITION [%]": -108.93}
{"compound": "C[C@@H]1CN(C(=O)c2ccsc2)C[C@]12CCN(c1ccsc1)C2=O", "targetEntity": "Plasmodium berghei", "INHIBITION [%]": -1.79}
{"compound": "CCN(CC)C1COc2c(cc(Br)c(C)c2C)C1=O (stereo not drawn)", "targetEntity": "Plasmodium berghei", "INHIBITION [%]": 24.56}
{"compound": "O=c1[nH]c(-c2ccccc2F)nc2c1CCNC2", "targetEntity": "Plasmodium berghei", "INHIBITION [%]": 1.4}
{"compound": "N#Cc1ccc(N2CCN(c3cnccn3)CC2)c(C(F)(F)F)c1", "targetEntity": "Plasmodium berghei", "INHIBITION [%]": -22.24}
{"compound": "O=C(CO)N1CCCC2(CCN(c3ccsc3)C2=O)C1 (stereo not drawn)", "targetEntity": "Plasmodium berghei", "INHIBITION [%]": 55.21}
{"compound": "Cc1ccc(C(=O)N2CCC3(CCN(c4ccsc4)C3=O)C2)cn1 (stereo not drawn)", "targetEntity": "Plasmodium berghei", "INHIBITION [%]": 52.66}
{"compound": "Cc1nc(N(Cc2ccncc2)CC2CCCO2)c2ccsc2n1 (stereo not drawn)", "targetEntity": "Plasmodium berghei", "INHIBITION [%]": -59.39}
{"compound": "Cc1nc(NCc2noc(C3CCCO3)n2)c2ccsc2n1 (stereo not drawn)", "targetEntity": "Plasmodium berghei", "INHIBITION [%]": 59.01}
{"compound": "Nc1cc2c(nn1)CCN(C(=O)CCCC1CCCCC1)C2", "targetEntity": "Plasmodium berghei", "INHIBITION [%]": -33.92}
{"compound": "O=c1[nH]c(-c2ccc(F)cc2)nc2c1CCNC2", "targetEntity": "Plasmodium berghei", "INHIBITION [%]": 53.66}
{"compound": "CN(Cc1cncnc1)[C@@H]1CN(Cc2ccco2)C[C@@H]2CCCO[C@@H]21", "targetEntity": "Plasmodium berghei", "INHIBITION [%]": -37.2}
{"compound": "CN(C)C(=O)CN1CC[C@H]2[C@H]1CCN2c1ncccn1", "targetEntity": "Plasmodium berghei", "INHIBITION [%]": 22.18}
{"compound": "CN(C)c1nccc(N(C)C2CCOCC2)n1", "targetEntity": "Plasmodium berghei", "INHIBITION [%]": 19.59}
{"compound": "O=c1[nH]c(-c2ccc(Cl)cc2)nc2c1CCNC2", "targetEntity": "Plasmodium berghei", "INHIBITION [%]": 57.21}
{"compound": "COCCN(Cc1nccs1)C(=O)c1cc(-c2ccc(C)s2)n[nH]1", "targetEntity": "Plasmodium berghei", "INHIBITION [%]": 31.51}
{"compound": "O=C1NCCN(CC2CC2)C12CCN(Cc1ccco1)CC2", "targetEntity": "Plasmodium berghei", "INHIBITION [%]": 61.9}
{"compound": "Cc1nc(NCc2noc(C3CCCO3)n2)c2sccc2n1 (stereo not drawn)", "targetEntity": "Plasmodium berghei", "INHIBITION [%]": 61.69}
{"compound": "COCCN(Cc1cccc(OCCO)c1)Cc1ccccc1F", "targetEntity": "Plasmodium berghei", "INHIBITION [%]": 58.42}
{"compound": "O=C(N1CCCC1)N1CCCC2(CCN(c3ccsc3)C2=O)C1 (stereo not drawn)", "targetEntity": "Plasmodium berghei", "INHIBITION [%]": 45.82}
{"compound": "O=C(NCCc1noc(C2CCCO2)n1)c1cn2ccsc2n1 (stereo not drawn)", "targetEntity": "Plasmodium berghei", "INHIBITION [%]": 40.88}
{"compound": "COCCN(Cc1nccs1)C(=O)c1cc(-c2ccc(C)o2)n[nH]1", "targetEntity": "Plasmodium berghei", "INHIBITION [%]": 52.98}
{"compound": "CC(C)NC(=O)N1CCC2(CC1)C(=O)NCCN2Cc1ccccc1", "targetEntity": "Plasmodium berghei", "INHIBITION [%]": 5.69}
{"compound": "COCCN(Cc1nccs1)C(=O)c1c(C)cc(C)[nH]c1=O", "targetEntity": "Plasmodium berghei", "INHIBITION [%]": -1.63}
{"compound": "CCN1CCN(C2CCN(Cc3noc(C4CC4)n3)CC2)C1=O", "targetEntity": "Plasmodium berghei", "INHIBITION [%]": 24.65}
{"compound": "COc1cc2cc(C)c(SCCN3CCCCC3)nc2cc1OC", "targetEntity": "Plasmodium berghei", "INHIBITION [%]": 11.74}
{"compound": "C[C@H]1CN(C(=O)c2cscn2)C[C@@]12CCN(c1ccsc1)C2=O", "targetEntity": "Plasmodium berghei", "INHIBITION [%]": 55.8}
{"compound": "CCn1ccc2ccnc(CC3CN(C(=O)Cn4ccnc4C)C3)c21", "targetEntity": "Plasmodium berghei", "INHIBITION [%]": 2.78}
{"compound": "NC(=O)c1ccc(-c2nc3c(c(=O)[nH]2)CCNC3)cc1", "targetEntity": "Plasmodium berghei", "INHIBITION [%]": 41.78}
{"compound": "Cc1noc(C2CCN(C(C)c3nc(C(C)(C)C)no3)CC2)n1 (stereo not drawn)", "targetEntity": "Plasmodium berghei", "INHIBITION [%]": 11.42}
{"compound": "O=C(c1cccnc1)N1CCCC2(CCN(c3ccsc3)C2=O)C1 (stereo not drawn)", "targetEntity": "Plasmodium berghei", "INHIBITION [%]": 18.37}
{"compound": "Cc1nc(NCCc2noc(C3CCCO3)n2)c2sccc2n1 (stereo not drawn)", "targetEntity": "Plasmodium berghei", "INHIBITION [%]": 49.63}
{"compound": "O=C(c1ccnnc1)N1CCC2(CCN(c3ccsc3)C2=O)C1 (stereo not drawn)", "targetEntity": "Plasmodium berghei", "INHIBITION [%]": -12.06}
{"compound": "O=C(NCc1ccco1)[C@H]1C[C@H]2OCC[C@H]2N(C(=O)c2ccnnc2)C1", "targetEntity": "Plasmodium berghei", "INHIBITION [%]": -14.65}
{"compound": "COc1cc(N2C[C@@H]3COC[C@]3(C(=O)NCc3ccccn3)C2)ncn1", "targetEntity": "Plasmodium berghei", "INHIBITION [%]": -23.31}
{"compound": "CCN(Cc1cccc2c1OCO2)C(=O)NCc1ccccn1", "targetEntity": "Plasmodium berghei", "INHIBITION [%]": -5.39}
{"compound": "COc1ccccc1-c1cc(NC(=O)CCS(=O)(=O)C2CCCC2)[nH]n1", "targetEntity": "Plasmodium berghei", "INHIBITION [%]": -43.66}
{"compound": "O=C(c1ccsc1)N1CCC2(CCN(Cc3ccccn3)C2=O)C1 (stereo not drawn)", "targetEntity": "Plasmodium berghei", "INHIBITION [%]": 57.85}
{"compound": "COCC1(C(=O)N[C@H]2CN(c3noc(C)n3)C[C@@H]2C2CC2)CCC1", "targetEntity": "Plasmodium berghei", "INHIBITION [%]": 21.28}
{"compound": "O=C(CN1CCN(c2ncccn2)[C@@H]2CS(=O)(=O)C[C@@H]21)N1CCCCC1", "targetEntity": "Plasmodium berghei", "INHIBITION [%]": 14.19}
{"compound": "Cn1cnnc1SC1CCc2ccccc2NC1=O (stereo not drawn)", "targetEntity": "Plasmodium berghei", "INHIBITION [%]": 21.31}
{"compound": "CC1N(C)C(=O)COC12CCN(Cc1nccs1)CC2 (stereo not drawn)", "targetEntity": "Plasmodium berghei", "INHIBITION [%]": -52.93}
{"compound": "O=C(NCCCO)Nc1cccc(Cl)c1F", "targetEntity": "Plasmodium berghei", "INHIBITION [%]": -5.28}
{"compound": "CC(C)N1CCC(N(C)c2ccnc(N(C)C)n2)CC1", "targetEntity": "Plasmodium berghei", "INHIBITION [%]": 69.67}
{"compound": "CN1CCc2nc(N(C)C)nc(N3CCC(O)CC3)c2C1", "targetEntity": "Plasmodium berghei", "INHIBITION [%]": 21.24}
{"compound": "Cc1ccc(CN2CCC3(CC2)C(=O)NCCN3CC2CC2)o1", "targetEntity": "Plasmodium berghei", "INHIBITION [%]": 8.62}
{"compound": "COCCN(Cc1cccc(O)c1)Cc1ccccc1F", "targetEntity": "Plasmodium berghei", "INHIBITION [%]": 35.48}
